molecular target: Cannabinoid receptor 1 (Rattus norvegicus) (UniProt P20272); assay: Displacement of [3H]CP55,940 from CB1 receptor in rat brain cortical membranes at 10 uM; assay type: cell membranes
Sequence (P20272 whole entry): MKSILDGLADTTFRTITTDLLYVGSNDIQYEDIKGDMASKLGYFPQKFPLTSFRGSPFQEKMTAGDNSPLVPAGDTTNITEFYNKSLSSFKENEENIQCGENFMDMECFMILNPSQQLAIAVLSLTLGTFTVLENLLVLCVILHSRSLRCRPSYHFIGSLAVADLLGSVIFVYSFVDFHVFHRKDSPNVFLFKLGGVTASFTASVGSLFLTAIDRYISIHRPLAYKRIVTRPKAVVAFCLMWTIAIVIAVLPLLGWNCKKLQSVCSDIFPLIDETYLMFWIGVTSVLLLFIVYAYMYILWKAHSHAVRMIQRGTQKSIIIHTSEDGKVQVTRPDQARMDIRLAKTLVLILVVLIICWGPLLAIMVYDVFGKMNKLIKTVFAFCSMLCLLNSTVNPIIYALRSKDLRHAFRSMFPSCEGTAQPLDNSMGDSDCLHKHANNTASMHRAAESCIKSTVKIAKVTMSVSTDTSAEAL
Assign condition met to entries whose inhibition meets or exceeds 5%; assign condition not met to the rest.

[[record]]
smiles_representation = "CCOC(=O)COc1cccc(/C=C2\\N=C3SCCCCN3C2=O)c1"
classification = "condition met"

[[record]]
smiles_representation = "COc1ccc(/C=C2\\N=C3SCCCN3C2=O)cc1OC"
classification = "condition not met"

[[record]]
smiles_representation = "O=C(Oc1cccc(/C=C2\\N=C3SCCCN3C2=O)c1)c1ccccc1"
classification = "condition met"

[[record]]
smiles_representation = "O=C1N2CCSC2=NC1(c1ccccc1)c1ccccc1"
classification = "condition met"

[[record]]
smiles_representation = "CC(C)c1ccc(/C=C2\\N=C3SCCCN3C2=O)cc1"
classification = "condition met"

[[record]]
smiles_representation = "O=C1/C(=C/c2ccc([N+](=O)[O-])cc2)N=C2SCCCN12"
classification = "condition met"

[[record]]
smiles_representation = "COc1ccccc1/C=C1\\N=C2SCCCN2C1=O"
classification = "condition not met"

[[record]]
smiles_representation = "O=C1N=C2SCCN2C1(c1ccccc1)c1ccccc1"
classification = "condition met"

[[record]]
smiles_representation = "O=C1/C(=C/c2ccc(Br)cc2)N=C2SCCCN12"
classification = "condition met"

[[record]]
smiles_representation = "O=C1/C(=C/c2ccccc2)N=C2SCCCN12"
classification = "condition not met"

[[record]]
smiles_representation = "O=C1/C(=C/c2ccc(-c3ccccc3)cc2)N=C2SCCCCN12"
classification = "condition not met"

